TEST_SUMMARY: anti-His antibody binders, primary screen, artefact control for SMM control protein annotation, biochemical, small-molecule microarray, 635 nm fluorescence (AID 1128);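 also: score merges feature fluorescence with signal-to-noise for each printed compound spot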
PROTOCOL_CONDITIONS: anti-His Alexa647 antibody binding, higher = more signal
Classes by composite z-score: low = under 0.09, intermediate = from 0.09 up to 0.9, high = 0.9 and over

In plain terms, what class is `O=C1[C@H]2CCn3c(=O)n(Cc4cc5c(cc4Cl)OCO5)c(=O)n3[C@H]2[C@H](O)[C@@H]2O[C@H]12` ?
intermediate

Exam item: assign `COc1ccc(COC(=O)NN=C2C[C@@H](O)[C@@H](O)[C@@H]3[C@@H]4C(=O)N(C[C@@H]5CCCO5)C(=O)[C@@H]4CC[C@H]23)cc1` to the correct category.
low

Which category does the recorded composite z-score put `CCOC(=O)CCN1C(=O)[C@H]2[C@H]3[C@H](O)[C@H](O)CC(=NNC(=O)OCc4ccccc4)[C@H]3CC[C@H]2C1=O` in?
low

Into which category would you place `COC(=O)CC=C[C@@H](C)[C@@H](C=NOC[C@@H](C)[C@H](OCc1ccccc1)C(C)C)NS(=O)(=O)c1ccc(C)cc1` ?
high

Input COC(=O)[C@H](C)NC(=O)CCC1CC(OC(=O)NCc2ccc3c(c2)OCO3)CC2(CCCC(COC(=O)NCCc3ccc(Cl)cc3)O2)O1 (some centres undefined) ; output its category
high

New cases:
Class label required: `COC(=O)[C@H](Cc1ccccc1)NC(=O)[C@@H](C)CO`
low

Hi there! Could you help me figure out the category for `C#CCCCON=C1[C@H]2CCn3c(=O)n(Cc4cc5c(cc4Cl)OCO5)c(=O)n3[C@H]2[C@H](O)[C@@H]2O[C@H]12` please?
intermediate

Hi there! Could you help me figure out the category for `CCOC(=O)CCN1C(=O)[C@H]2[C@H]3[C@H](O)[C@H](O)CC(=NOCC=C(C)CCC=C(C)C)[C@H]3CC[C@H]2C1=O` please?
low

###

Tested on: Plasmodium falciparum Sir2 (PF13_0152, Sir2A)
TEST_SUMMARY: pfSir2 binders on small-molecule microarrays, primary screen, biochemical, small-molecule microarray, 635 nm fluorescence (AID 1098);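 also: score merges spot fluorescence intensity with its signal-to-noise ratio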
PROTOCOL_CONDITIONS: small-molecule microarray binding, fluorescence 635 nm; higher = more signal
Use 1 when the recorded composite z-score is no lower than 0.7; use 0 when it is lower.

These recorded examples may help you get a feel for the data.
Decide: composite z-score of `CC(C)(C)N1C(=O)[C@H]2[C@H]3[C@H](O)[C@H](O)CC(=NNC(=O)OCc4ccccc4)[C@H]3CC[C@H]2C1=O` >= 0.7?
0

State whether the measured composite z-score reaches 0.7, counting equality as reaching it, for CCOC(=O)[C@H](CC(C)C)NC(=O)CCC1CC(OC(=O)NCCc2ccc(F)cc2)CC2(CCCC(COC(=O)NCCOC)O2)O1 (stereo not given in full)
1

Does the molecule `COc1ccc(COC(=O)NN=C2C[C@@H](O)[C@@H](O)[C@@H]3[C@@H]4C(=O)N(C[C@@H]5CCCO5)C(=O)[C@@H]4CC[C@@H]23)cc1` have recorded composite z-score that is 0.7 or more?
1

More entries:
Please tell me: is the molecule `COC(=O)[C@H](C)NC(=O)CC=C[C@@H](C)[C@@H]1C=C[C@H](O)[C@@H](CO)O1` at or over 0.7 in terms of composite z-score?
0

Quick check, composite z-score >= 0.7? `CCN1C(=O)[C@H]2[C@H]3[C@H](O)[C@H](O)CC(=NOCC(C)C)[C@H]3CC[C@H]2C1=O`
0

Dear colleague, could you confirm whether `C#CCCCON=C1[C@H]2CCn3c(=O)n([C@@H](CC)c4ccccc4)c(=O)n3[C@H]2[C@H](O)[C@@H]2O[C@H]12` has composite z-score at or above 0.7?
1
